target_system: hCA I (Homo sapiens)
Construct: gene CA1; recombinant, cytosolic isoform
Sequence (P00915 2-261): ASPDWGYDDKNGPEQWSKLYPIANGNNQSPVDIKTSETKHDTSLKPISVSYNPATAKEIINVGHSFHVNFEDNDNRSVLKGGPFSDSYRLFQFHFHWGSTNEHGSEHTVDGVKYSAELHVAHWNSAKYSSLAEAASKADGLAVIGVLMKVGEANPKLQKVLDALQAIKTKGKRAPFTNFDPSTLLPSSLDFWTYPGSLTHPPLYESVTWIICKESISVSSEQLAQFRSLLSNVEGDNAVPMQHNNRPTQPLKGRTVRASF
assay_protocol: stopped-flow CO2 hydration
Type: biochemical
pKi: −log10 of the molar value.
measured_parameter: pKi

                                    compound  measured_parameter  meas_value
 0        C#CCNC(=O)c1ccc(OC)c(S(N)(=O)=O)c1                 pKi        5.02
 1  NS(=O)(=O)c1cc(C(=O)NCc2cn(-c3cccc(F)c3)nn2)ccc1F                 pKi        6.37
 2  COc1ccc(C(=O)NCc2cn(-c3ccc(Br)cc3)nn2)cc1S(N)(=O)=O                 pKi        6.26
 3  COc1ccc(C(=O)NCc2cn(-c3ccc(C)cc3)nn2)cc1S(N)(=O)=O                 pKi        6.01
 4  NS(=O)(=O)c1cccc(C(=O)NCc2cn(-c3cccc([N+](=O)[O-])c3)nn2)c1                 pKi        6.02
 5              COc1ccc(C(=O)O)cc1S(N)(=O)=O                 pKi        5.01
 6  N#Cc1cccc(-n2cc(CNC(=O)c3cccc(S(N)(=O)=O)c3)nn2)c1                 pKi        6.37
 7                NS(=O)(=O)c1cccc(C(=O)O)c1                 pKi        5.06
 8               NS(=O)(=O)c1cc(C(=O)O)ccc1F                 pKi        5.24
 9  Cc1cccc(-n2cc(CNC(=O)c3cccc(S(N)(=O)=O)c3)nn2)c1C                 pKi        6.35
10  NS(=O)(=O)c1cccc(C(=O)NCc2cn(-c3cccc(F)c3)nn2)c1                 pKi        6.06
11  NS(=O)(=O)c1cc(C(=O)NCc2cn(-c3ccccc3)nn2)ccc1F                 pKi        6.05
12  COc1ccc(C(=O)NCc2cn(-c3ccc(F)cc3)nn2)cc1S(N)(=O)=O                 pKi        6.24
13  C#CCNC(=O)c1cccc(S(N)(=O)=O)c1 [4a, N-(prop-2-yn-1-yl)-3-sulfamoylbenzamide]                 pKi        5.03
14  COc1ccc(C(=O)NCc2cn(-c3ccc(C)cc3C)nn2)cc1S(N)(=O)=O                 pKi        5.12
15  NS(=O)(=O)c1cc(C(=O)NCc2cn(-c3ccc(C(F)(F)F)cc3)nn2)ccc1Cl                 pKi        6.09
16  COc1cc(-n2cc(CNC(=O)c3ccc(Cl)c(S(N)(=O)=O)c3)nn2)cc(OC)c1OC                 pKi        6.32
17  Cc1ccc(-n2cc(CNC(=O)c3ccc(F)c(S(N)(=O)=O)c3)nn2)cc1                 pKi        6.08
18        C#CCNC(=O)c1ccc(Cl)c(S(N)(=O)=O)c1                 pKi        5.31
19  NS(=O)(=O)c1cc(C(=O)NCc2cn(-c3ccc(Br)cc3)nn2)ccc1F                 pKi        6.16
20  COc1ccc(-n2cc(CNC(=O)c3ccc(Cl)c(S(N)(=O)=O)c3)nn2)cc1                 pKi        7.06
21  COc1cc(-n2cc(CNC(=O)c3cccc(S(N)(=O)=O)c3)nn2)cc(OC)c1OC                 pKi        6.07
22              NS(=O)(=O)c1cc(C(=O)O)ccc1Cl                 pKi        5.05
23  COc1ccccc1-n1cc(CNC(=O)c2ccc(OC)c(S(N)(=O)=O)c2)nn1                 pKi        6.02
24  N#Cc1cccc(-n2cc(CNC(=O)c3ccc(F)c(S(N)(=O)=O)c3)nn2)c1                 pKi        6.16
25  COc1ccc(-n2cc(CNC(=O)c3ccc(F)c(S(N)(=O)=O)c3)nn2)cc1                 pKi        7.16
26  Cc1ccc(-n2cc(CNC(=O)c3cccc(S(N)(=O)=O)c3)nn2)c(C)c1                 pKi        6.16
27  COc1ccc(C(=O)NCc2cn(-c3ccccc3)nn2)cc1S(N)(=O)=O                 pKi        6.17
28  NS(=O)(=O)c1cccc(C(=O)NCc2cn(-c3ccccc3)nn2)c1                 pKi        6.12
29  NS(=O)(=O)c1cc(C(=O)NCc2cn(-c3ccc(C(F)(F)F)cc3)nn2)ccc1F                 pKi        6.43
30  NS(=O)(=O)c1cc(C(=O)NCc2cn(-c3ccccc3)nn2)ccc1Cl                 pKi        6.51
31         C#CCNC(=O)c1ccc(F)c(S(N)(=O)=O)c1                 pKi        6.13

* * *

This listing pairs molecules with measured Ki.
target_system: hCA IV (Homo sapiens, UniProt P22748)
Construct: gene CA4
Sequence (P22748 19-284): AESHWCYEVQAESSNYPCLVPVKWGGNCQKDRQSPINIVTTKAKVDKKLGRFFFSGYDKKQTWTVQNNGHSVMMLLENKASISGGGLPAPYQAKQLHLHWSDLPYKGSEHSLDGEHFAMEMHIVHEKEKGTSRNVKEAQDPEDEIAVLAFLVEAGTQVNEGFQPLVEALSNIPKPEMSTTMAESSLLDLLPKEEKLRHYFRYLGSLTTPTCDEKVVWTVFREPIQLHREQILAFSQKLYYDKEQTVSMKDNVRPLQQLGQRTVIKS
assay_protocol: stopped-flow CO2 hydration
Format: biochemical
measured_parameter: Ki (nM)

>>> print(df.to_string())
                                     smiles  units_symbol  meas_value
0  COc1ccc(-n2cc(CNC(=O)c3ccc(Cl)c(S(N)(=O)=O)c3)nn2)cc1            nM          80
1  NS(=O)(=O)c1cc(C(=O)NCc2cn(-c3ccc(C(F)(F)F)cc3)nn2)ccc1F            nM        91.8
2        C#CCNC(=O)c1ccc(Cl)c(S(N)(=O)=O)c1            nM        78.8
3  NS(=O)(=O)c1cc(C(=O)NCc2cn(-c3cccc(F)c3)nn2)ccc1F            nM        5310

* * *

target_system: hCA II (Homo sapiens, UniProt P00918)
Construct: gene CA2; recombinant, cytosolic isoform
assay_protocol: stopped-flow CO2 hydration
Assay type: biochemical
condition_description: read-out: hCAII
pKi: −log10 of the molar value.
This listing pairs molecules with measured pKi.
measured_parameter: pKi

In [3]: df
Out[3]:
                                    molecule  measured_parameter  meas_value
 0        C#CCNC(=O)c1ccc(Cl)c(S(N)(=O)=O)c1                 pKi        7.13
 1  NS(=O)(=O)c1cc(C(=O)NCc2cn(-c3ccccc3)nn2)ccc1F                 pKi        7.30
 2              COc1ccc(C(=O)O)cc1S(N)(=O)=O                 pKi        5.04
 3  COc1ccc(C(=O)NCc2cn(-c3ccc(C)cc3C)nn2)cc1S(N)(=O)=O                 pKi        5.19
 4  N#Cc1cccc(-n2cc(CNC(=O)c3ccc(F)c(S(N)(=O)=O)c3)nn2)c1                 pKi        6.40
 5  COc1cc(-n2cc(CNC(=O)c3ccc(Cl)c(S(N)(=O)=O)c3)nn2)cc(OC)c1OC                 pKi        7.29
 6  C#CCNC(=O)c1cccc(S(N)(=O)=O)c1 [4a, N-(prop-2-yn-1-yl)-3-sulfamoylbenzamide]                 pKi        6.29
 7               NS(=O)(=O)c1cc(C(=O)O)ccc1F                 pKi        6.12
 8  NS(=O)(=O)c1cc(C(=O)NCc2cn(-c3ccc(C(F)(F)F)cc3)nn2)ccc1Cl                 pKi        8.11
 9  N#Cc1cccc(-n2cc(CNC(=O)c3cccc(S(N)(=O)=O)c3)nn2)c1                 pKi        5.63
10  COc1cc(-n2cc(CNC(=O)c3cccc(S(N)(=O)=O)c3)nn2)cc(OC)c1OC                 pKi        5.05
11  NS(=O)(=O)c1cc(C(=O)NCc2cn(-c3ccccc3)nn2)ccc1Cl                 pKi        7.15
12  COc1ccc(C(=O)NCc2cn(-c3ccc(C)cc3)nn2)cc1S(N)(=O)=O                 pKi        5.38
13              NS(=O)(=O)c1cc(C(=O)O)ccc1Cl                 pKi        5.86
14  NS(=O)(=O)c1cccc(C(=O)NCc2cn(-c3ccccc3)nn2)c1                 pKi        5.35
15  COc1ccc(C(=O)NCc2cn(-c3ccccc3)nn2)cc1S(N)(=O)=O                 pKi        5.54
16  NS(=O)(=O)c1cccc(C(=O)NCc2cn(-c3cccc([N+](=O)[O-])c3)nn2)c1                 pKi        5.03
17  Cc1ccc(-n2cc(CNC(=O)c3ccc(F)c(S(N)(=O)=O)c3)nn2)cc1                 pKi        6.58
18  Cc1ccc(-n2cc(CNC(=O)c3cccc(S(N)(=O)=O)c3)nn2)c(C)c1                 pKi        6.29
19  COc1ccc(C(=O)NCc2cn(-c3ccc(F)cc3)nn2)cc1S(N)(=O)=O                 pKi        5.02
20         C#CCNC(=O)c1ccc(F)c(S(N)(=O)=O)c1                 pKi        6.78
21  NS(=O)(=O)c1cc(C(=O)NCc2cn(-c3ccc(Br)cc3)nn2)ccc1F                 pKi        6.43
22  COc1ccc(-n2cc(CNC(=O)c3ccc(Cl)c(S(N)(=O)=O)c3)nn2)cc1                 pKi        7.25
23  NS(=O)(=O)c1cccc(C(=O)NCc2cn(-c3cccc(F)c3)nn2)c1                 pKi        5.53
24  COc1ccccc1-n1cc(CNC(=O)c2ccc(OC)c(S(N)(=O)=O)c2)nn1                 pKi        5.27
25        C#CCNC(=O)c1ccc(OC)c(S(N)(=O)=O)c1                 pKi        5.26
26  Cc1cccc(-n2cc(CNC(=O)c3cccc(S(N)(=O)=O)c3)nn2)c1C                 pKi        6.44
27                NS(=O)(=O)c1cccc(C(=O)O)c1                 pKi        5.06
28  NS(=O)(=O)c1cc(C(=O)NCc2cn(-c3ccc(C(F)(F)F)cc3)nn2)ccc1F                 pKi        7.04
29  COc1ccc(C(=O)NCc2cn(-c3ccc(Br)cc3)nn2)cc1S(N)(=O)=O                 pKi        5.63
30  COc1ccc(-n2cc(CNC(=O)c3ccc(F)c(S(N)(=O)=O)c3)nn2)cc1                 pKi        7.13
31  NS(=O)(=O)c1cc(C(=O)NCc2cn(-c3cccc(F)c3)nn2)ccc1F                 pKi        6.48
